Measured values drawn from patent US20220380463A1 for this set.

Molecular target: T1, human CD3 on CD3+ Jurkat cells (human, UniProt P07766 23-207)
T1 construct: whole, on cells; Native CD3 complex on cells; the other CD3 chains are not specified for this assay; also called Human CD3+ Jurkat
T1 sequence (P07766 23-207): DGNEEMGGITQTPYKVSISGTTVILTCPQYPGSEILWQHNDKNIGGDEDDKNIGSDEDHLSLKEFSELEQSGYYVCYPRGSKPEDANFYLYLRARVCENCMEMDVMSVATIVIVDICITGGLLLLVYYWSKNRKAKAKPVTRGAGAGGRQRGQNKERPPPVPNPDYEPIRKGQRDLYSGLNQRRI
Assay: flow cytometry on CD3+ Jurkat cells, ratio of MFI at pH 6.0 to pH 7.4
ENDPOINT LABEL: MFI pH 6.0/MFI pH 7.4
Give the figure only, with no unit attached.

SAD10319_P02_G06 (ADI-48632) (antibody, V domains shown, IgG; also called Ab15) VH: QVQLVQSGAEVKKPGASVKVSCKASGYTFTSYAMHWVRQAPGQRLEWMGWINPDTGATVYSQKFQGRVTITRDTSASTAYMELSSLRSEDTAVYYCARDAYHHYFYDVWGQGTLVTVSS VL: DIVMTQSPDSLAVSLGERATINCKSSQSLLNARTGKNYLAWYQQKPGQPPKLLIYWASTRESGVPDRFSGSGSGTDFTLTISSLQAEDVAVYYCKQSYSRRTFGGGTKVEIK ... 15.1
SAD10318_P02_G06 (ADI-48600) (antibody, V domains shown, IgG; also called Ab189) VH: QVQLVQSGAEVKKPGASVKVSCKASGFNIKDYYMHWVRQAPGQRLEWMGWIDLENANTIYDAKFQGRVTITRDTSASTAYMELSSLRSEDTAVYYCAHDAYGHYFYDVWGQGTLVTVSS VL: DIVMTQSPDSLAVSLGERATINCKSSQSLLHTRTGKNYLAWYQQKPGQPPKLLIYWASTRESGVPDRFSGSGSGTDFTLTISSLQAEDVAVYYCKQSYSRRTFGGGTKVEIK ... 2.2

API: the following record is the query input.
Task: Suppose we examine the binder SAD10318_P01_G01 (ADI-48579) (antibody, V domains shown, IgG; also called Ab215) VH: QVQLVQSGAEVKKPGASVKVSCKASGFNIKDYYMHWVRQAPGQRLEWMGWIDLENANTIYDAKFQGRVTITRDTSASTAYMELSSLRSEDTAVYYCARDAHGHYFYDVWGQGTLVTVSS VL: DIVMTQSPDSLAVSLGERATINCKSSQSLLHAHTGKNYLAWYQQKPGQPPKLLIYWASTRESGVPDRFSGSGSGTDFTLTISSLQAEDVAVYYCKQSHSHRTFGGGTKVEIK ; what MFI pH 6.0/MFI pH 7.4 value has been reported?
Result: 6.8
